system: UO-31 renal; assay: NCI-60 one-dose screen, 48 h (100 = growth as untreated, 0 = no growth, -100 = all killed); details: 10 µM unless noted
This is part of a sample that, as a whole, favours compounds with a hit. Of some 83,000 tested, about 20% had one in any assay. Activity calls are given as the source filed them. Rule for the calls: active = growth percent below 10; inactive = the rest.
Each item that follows carries a reported growth.
value_type: growth

molecule: COc1ccc(C2=CN3CC=CCC3CC2=O)cc1 (stereo not given)
result: 95.6% (inactive)
--
molecule: O=C(CBr)CN1C(=O)c2ccccc2C1=O
result: 88.8% (inactive)
--
molecule: COc1cc(C2C3=C(COC3=O)N(CCO)c3cc4c(cc32)OCCO4)cc(OC)c1OC (stereo not given)
result: 54.3% (inactive)
--
molecule: CC[C@]12C=CCN3CC[C@@]4(c5ccc(OC)cc5N(C)[C@H]4[C@@](O)(C(=O)OC)[C@@H]1OC(=O)CCCN1CCOCC1)[C@@H]32
result: 94.1% (inactive)
--
molecule: COc1cc(C(=O)/C=C/c2ccc(N3CCN(C)CC3)cc2)cc(OC)c1OC
result: 73.2% (inactive)
--
molecule: CCc1ccc(CCC(=O)Nc2ncc(Cc3ccc(Cl)cc3)s2)o1
result: 43% (inactive)
--
molecule: CCCCCCCCCCCCCCCCCCOc1ccccc1CC(=O)NCC[N+]1(C)CCOCC1
result: 77.3% (inactive)
--
molecule: O=C(CCCCNC(=O)c1cc(=O)c(O)co1)Nc1ccccc1
result: 76.4% (inactive)
--
molecule: CCn1cc(CNc2ccc(C(=O)Nc3cc4cc(OC)c(OC)cc4c(C)n3)cc2)c(C)n1
result: 22.4% (inactive)
--
molecule: O=C(N/N=C/c1ccc(O)cc1O)c1ccc(Nc2ccnc(C(F)(F)F)c2)cc1
result: 46.1% (inactive)
--
molecule: Cc1[nH]c(C(=O)Nc2cccc(OC3CCNCC3)c2)c(Cl)c1Cl
result: 67.1% (inactive)
--
molecule: Cn1cc(C(=O)c2nc(-c3c[nH]c4ccc(Br)cc34)no2)c2cc(Br)ccc21
result: 67% (inactive)
--
molecule: CCN(CC)c1ccc(/C=C\c2cc(C)c3cc(C)ccc3n2)cc1
result: 26.6% (inactive)
--
molecule: COc1cc(Nc2c3ccc(Cl)cc3nc3ccc(OC)cc23)c2ncccc2c1
result: 26.9% (inactive)
--
molecule: O=C(Cn1nnc2ccccc21)Nc1ccc(-c2nc3ccccc3s2)cc1
result: 86.5% (inactive)

----------
system: LOX IMVI melanoma; assay: NCI-60 one-dose screen, 48 h; conditions: 10 µM unless noted
This is part of a sample that, as a whole, favours compounds with a hit. Of some 83,000 tested, about 20% had one in any assay. Activity calls are given as the source filed them. Rule for the calls: active = growth percent below 10; inactive = the rest.
Classes used: TRUE = active, FALSE = inactive

structure_string: CCCCn1sc(=O)n(Cc2ccc(CNC(=O)OCc3ccc4c(Br)cc(Br)c(O)c4n3)cc2)c1=O
class_assignment: FALSE
//
structure_string: N=C(N)c1ccc(-c2ccc(-c3ccc(F)cc3)s2)s1
class_assignment: TRUE
//
structure_string: O=C(CCCCCCN1CC(=O)N2[C@@H](C3CCCCC3)c3[nH]c4ccccc4c3C[C@H]2C1=O)NO
class_assignment: TRUE

----------
system: HCT-116 colon; assay: NCI-60 one-dose screen, 48 h (100 = growth as untreated, 0 = no growth, -100 = all killed); details: 10 µM unless noted
Compounds without any hit were thinned out: in the full panel of roughly 83,000, 20% have a hit. Active and inactive are the calls of the source. Rule for the calls: active = growth percent below 10; inactive = the rest.
value_type: growth

compound: CCOC(=O)c1c(C)c2c(n1C)CSc1cc(S(=O)(=O)c3ccccc3)c(=O)[nH]c1-2
tested_target: HCT-116 colon
result: 11% [100 µM] (inactive)
//
compound: COc1ccc(-c2cc(-c3ccc(OC)cc3)nc(NCCCNc3ccnc4cc(Cl)ccc34)n2)cc1
tested_target: HCT-116 colon
result: -84.9% (active)
//
compound: COC(=O)C1=Nc2ccc(F)cc2/C1=C\c1sc(Nc2ccc(O)cc2)nc1O
tested_target: HCT-116 colon
result: 64% (inactive)
//
compound: O=C1CC2C=CCN2C=C1NC(=O)C1CCCCC1 (configuration not stated)
tested_target: HCT-116 colon
result: 94.8% (inactive)
//
compound: O=C1/C(=C/c2cccc([N+](=O)[O-])c2)COc2ccc(O)cc21
tested_target: HCT-116 colon
result: -44.6% (active)
//
compound: COc1ccc(-c2oc(=O)ccc2-c2cc(OC)c(OC)c(OC)c2)cc1O
tested_target: HCT-116 colon
result: -30.2% (active)
//
compound: CC(C)CN1CC(C(=O)Nc2ccc3c(c2)-c2ccccc2C3)CC1=O (configuration not stated)
tested_target: HCT-116 colon
result: 64.1% [50 µM] (inactive)

----------
test system: MOLT-4 leukemia; assay: NCI-60 one-dose screen, 48 h (100 = growth as untreated, 0 = no growth, -100 = all killed); details: 10 µM unless noted
This is part of a sample that, as a whole, favours compounds with a hit. Of some 83,000 tested, about 20% had one in any assay.
Rule: fulfilled for growth not less than 50%, not fulfilled for anything less.

structure_string: COc1cc(/C=C2\C(=O)N(c3c(Cl)cccc3Cl)c3ccccc32)cc(OC)c1OCCCCCCn1c2ccccc2c(=O)c2ccccc21
class_assignment: fulfilled
--
structure_string: CCOC(=O)c1c(-c2ccc(Cl)cc2)c(C#N)c2c(C#N)c(N)nn2c1N
class_assignment: not fulfilled
--
structure_string: CC1(C)OC(=O)C(=Cc2cccc(Br)c2)C(=O)O1
class_assignment: fulfilled
--
structure_string: Cc1nn(-c2ccccc2)c(N2CCCCC2)c1/C=N/NC(=O)Cn1c(=O)sc2ccccc21
class_assignment: fulfilled
--
structure_string: C[C@@H](CO)[C@@H]1CC[C@]2(C(=O)N3CCN(C)CC3)CC[C@]3(C)[C@H](CC[C@@H]4[C@@]5(C)CC[C@H](O)C(C)(C)[C@@H]5CC[C@]43C)[C@@H]12
class_assignment: not fulfilled
--
structure_string: COc1ccc(OC)c(Nc2nnc(-c3ccc(Cl)cc3)o2)c1
class_assignment: fulfilled
--
structure_string: O=C(CN1C(=O)/C(=C/c2ccco2)SC1=S)NCCc1c[nH]c2ccc(F)cc12
class_assignment: fulfilled

----------
tested on: RPMI-8226 leukemia; experiment: NCI-60 one-dose screen, 48 h (100 = growth as untreated, 0 = no growth, -100 = all killed); details: 10 µM unless noted
This is part of a sample that, as a whole, favours compounds with a hit. Of some 83,000 tested, about 20% had one in any assay.
Each item that follows carries a reported growth.

compound: c1ccc(CNc2ccc3nc(CCC4CCCCC4)[nH]c3c2)cc1
tested_target: RPMI-8226 leukemia
growth (%): 47.9
--
compound: COc1ccc2cc(-c3cnc4nonc4n3)ccc2c1
tested_target: RPMI-8226 leukemia
growth (%): 0.566
--
compound: COc1ccc(C(c2cc(OC)c(OC)c(OC)c2)N2CCCC2)cc1 (stereo not given)
tested_target: RPMI-8226 leukemia
growth (%): 97.4
--
compound: CCCCc1oc2ccccc2c1C(=O)c1ccc(O)cc1
tested_target: RPMI-8226 leukemia
growth (%): 42.5
--
compound: Cc1ccc(/C=C/C(=O)c2ccc(NC(=O)CSc3nc4c([nH]3)c(=O)n(C)c(=O)n4C)cc2)c(C)c1
tested_target: RPMI-8226 leukemia
growth (%): 52.6
--
compound: O[C@@H](c1cc(C(F)(F)F)nc2c(C(F)(F)F)cccc12)[C@H]1CCCCN1
tested_target: RPMI-8226 leukemia
growth (%): 68.9
--
compound: N#Cc1c(-c2ccccc2)nc2c(c(-c3ccccc3)nn2-c2ccccc2)c1-c1ccc(N2CCOCC2)cc1
tested_target: RPMI-8226 leukemia
growth (%): 76
--
compound: CC(C)c1ccc(-n2c(=S)[nH]c3sc4c(c3c2=O)CCC(=O)C4)cc1
tested_target: RPMI-8226 leukemia
growth (%): 15.9
--
compound: COc1cc2c(c(OC)c1OC)C(=O)N[C@@H]1[C@@H](O)[C@@H](O)[C@H](O)C[C@@H]21
tested_target: RPMI-8226 leukemia
growth (%): 102
--
compound: CCCCn1sc(=O)n(Cc2ccc(CNC(=O)OCc3ccc4c(Cl)cc(Cl)c(O)c4n3)cc2)c1=O
tested_target: RPMI-8226 leukemia
growth (%): 63
--
compound: COc1ccc(Nc2ncc(C(N)=O)c(NCCCNC(=O)C3CCC3)n2)cc1
tested_target: RPMI-8226 leukemia
growth (%): 72.9
--
compound: COc1ccc2nc(SCC(=O)Nc3ccccc3C)[nH]c2c1
tested_target: RPMI-8226 leukemia
growth (%): 90.1
--
compound: O=C(O)c1cn(C2CC2)c2cc(N3CCN(C(=O)N/N=C/c4ccccc4)CC3)c(F)cc2c1=O
tested_target: RPMI-8226 leukemia
growth (%): 104
--
compound: COC(=O)/C=C1/SC(=Nc2cccc(Cl)c2)N(CCc2c[nH]c3ccc(O)cc23)C1=O
tested_target: RPMI-8226 leukemia
growth (%): -23.9
--
compound: C=CC(=O)N1CCN(c2ccc3cccc(NC(=O)c4cnc(C)cn4)c3n2)CC1
tested_target: RPMI-8226 leukemia
growth (%): 43.3
